target: Helios (Homo sapiens, UniProt Q96SW2+Q9UKS7); assay: Helios Cellular Degradation Assay (Helios readout); assay type: cell-based; design: endogenous in cells; host or cells: Jurkat; details: Jurkat cells, 72 h incubation, Helios-PE antibody staining, flow cytometry; read-out: Helios Jurkat IC50
Sequence (Q9UKS7 whole entry): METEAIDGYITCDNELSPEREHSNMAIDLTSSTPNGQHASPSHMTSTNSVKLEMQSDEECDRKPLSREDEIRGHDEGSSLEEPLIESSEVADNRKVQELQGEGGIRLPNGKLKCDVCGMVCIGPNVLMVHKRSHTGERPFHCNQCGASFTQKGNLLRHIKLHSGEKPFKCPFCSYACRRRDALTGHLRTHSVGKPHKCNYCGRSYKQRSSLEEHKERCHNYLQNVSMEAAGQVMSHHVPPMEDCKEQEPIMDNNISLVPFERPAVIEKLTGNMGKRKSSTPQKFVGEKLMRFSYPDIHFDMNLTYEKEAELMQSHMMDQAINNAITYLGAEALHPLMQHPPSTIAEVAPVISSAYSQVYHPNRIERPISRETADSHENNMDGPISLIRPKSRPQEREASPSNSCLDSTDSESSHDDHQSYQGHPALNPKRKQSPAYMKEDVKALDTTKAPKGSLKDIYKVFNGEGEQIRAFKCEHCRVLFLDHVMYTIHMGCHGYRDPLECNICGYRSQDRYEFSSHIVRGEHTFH
Sequence (Q96SW2 whole entry): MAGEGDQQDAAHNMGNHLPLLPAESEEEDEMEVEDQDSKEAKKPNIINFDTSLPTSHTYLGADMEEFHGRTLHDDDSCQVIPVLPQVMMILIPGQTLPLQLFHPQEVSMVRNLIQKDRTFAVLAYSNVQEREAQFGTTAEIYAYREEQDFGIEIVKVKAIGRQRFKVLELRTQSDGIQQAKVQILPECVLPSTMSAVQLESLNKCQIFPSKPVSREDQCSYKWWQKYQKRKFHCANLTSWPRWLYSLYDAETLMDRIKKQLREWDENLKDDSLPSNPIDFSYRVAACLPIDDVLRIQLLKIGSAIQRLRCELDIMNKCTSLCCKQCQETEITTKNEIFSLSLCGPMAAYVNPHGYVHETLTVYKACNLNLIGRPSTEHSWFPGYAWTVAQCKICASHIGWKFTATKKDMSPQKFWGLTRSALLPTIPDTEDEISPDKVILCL
Sequence (Q16531 whole entry partner): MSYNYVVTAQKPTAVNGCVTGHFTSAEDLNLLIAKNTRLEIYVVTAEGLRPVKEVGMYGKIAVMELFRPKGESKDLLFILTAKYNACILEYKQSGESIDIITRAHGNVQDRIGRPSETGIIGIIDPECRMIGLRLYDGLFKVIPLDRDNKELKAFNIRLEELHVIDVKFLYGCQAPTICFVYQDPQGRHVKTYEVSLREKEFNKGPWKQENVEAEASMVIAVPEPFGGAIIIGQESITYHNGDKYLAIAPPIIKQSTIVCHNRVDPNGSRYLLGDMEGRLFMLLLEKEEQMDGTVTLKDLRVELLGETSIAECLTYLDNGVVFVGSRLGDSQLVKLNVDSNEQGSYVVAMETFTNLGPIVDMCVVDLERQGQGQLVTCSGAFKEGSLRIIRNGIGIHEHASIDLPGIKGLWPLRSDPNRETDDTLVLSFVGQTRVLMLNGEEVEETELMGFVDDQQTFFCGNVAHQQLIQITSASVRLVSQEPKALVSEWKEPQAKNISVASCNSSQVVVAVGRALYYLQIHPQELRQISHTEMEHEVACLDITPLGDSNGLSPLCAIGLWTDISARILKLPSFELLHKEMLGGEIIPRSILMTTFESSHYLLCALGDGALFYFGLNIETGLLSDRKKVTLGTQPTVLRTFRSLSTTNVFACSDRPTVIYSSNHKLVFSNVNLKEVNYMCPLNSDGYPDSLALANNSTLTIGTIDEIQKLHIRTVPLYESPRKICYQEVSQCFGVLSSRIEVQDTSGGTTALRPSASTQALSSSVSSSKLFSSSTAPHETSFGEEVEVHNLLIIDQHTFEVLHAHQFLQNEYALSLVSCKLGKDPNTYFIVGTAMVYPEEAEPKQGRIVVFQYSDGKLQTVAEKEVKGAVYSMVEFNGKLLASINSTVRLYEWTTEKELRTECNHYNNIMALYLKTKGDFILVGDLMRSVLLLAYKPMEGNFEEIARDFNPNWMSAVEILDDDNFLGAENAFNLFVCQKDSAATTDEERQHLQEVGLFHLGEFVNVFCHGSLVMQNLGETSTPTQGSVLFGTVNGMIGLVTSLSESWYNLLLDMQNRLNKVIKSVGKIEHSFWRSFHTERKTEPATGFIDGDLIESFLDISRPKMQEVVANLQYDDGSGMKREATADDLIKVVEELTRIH
Param label: returns condition met when DC50 < 90 nM, returns condition not met otherwise, including exact equality.

N#Cc1c(C(F)(F)F)cc(-c2ccc3c(c2)CN(C2CCC(=O)NC2=O)C3=O)nc1N (centres unmarked) = condition met
Cc1c(-c2ccc3c(c2)CN(C2CCC(=O)NC2=O)C3=O)nc(N)c2ccccc12 (centres unmarked) = condition not met
O=C1CCC(N2Cc3cc(-c4nccc5ncccc45)ccc3C2=O)C(=O)N1 (centres unmarked) = condition not met
O=C1CCC(N2Cc3cc(-c4ccc5c(n4)NC(=O)C5)ccc3C2=O)C(=O)N1 (centres unmarked) = condition not met
CNc1nc(-c2ccc3c(c2)CN(C2CCC(=O)NC2=O)C3=O)cc2c1ncn2C (centres unmarked) = condition met
Nc1cc(CCl)cc(-c2ccc3c(c2)CN(C2CCC(=O)NC2=O)C3=O)n1 (centres unmarked) = condition not met
Cc1ccc(-c2ccc3c(c2)CN(C2CCC(=O)NC2=O)C3=O)nc1N (centres unmarked) = condition not met

###

Listed here: items and their measured DC50.
biological target: Ikaros (Homo sapiens, UniProt Q13422+Q96SW2); assay: Helios Cellular Degradation Assay (Ikaros readout); format: cell-based; parameters: endogenous in cells; host or cells: Jurkat; conditions: Jurkat cells, 72 h incubation, Ikaros-Alexa488 antibody staining, flow cytometry; read-out: Ikaros Jurkat IC50
Sequence (Q13422 whole entry, one chain of several): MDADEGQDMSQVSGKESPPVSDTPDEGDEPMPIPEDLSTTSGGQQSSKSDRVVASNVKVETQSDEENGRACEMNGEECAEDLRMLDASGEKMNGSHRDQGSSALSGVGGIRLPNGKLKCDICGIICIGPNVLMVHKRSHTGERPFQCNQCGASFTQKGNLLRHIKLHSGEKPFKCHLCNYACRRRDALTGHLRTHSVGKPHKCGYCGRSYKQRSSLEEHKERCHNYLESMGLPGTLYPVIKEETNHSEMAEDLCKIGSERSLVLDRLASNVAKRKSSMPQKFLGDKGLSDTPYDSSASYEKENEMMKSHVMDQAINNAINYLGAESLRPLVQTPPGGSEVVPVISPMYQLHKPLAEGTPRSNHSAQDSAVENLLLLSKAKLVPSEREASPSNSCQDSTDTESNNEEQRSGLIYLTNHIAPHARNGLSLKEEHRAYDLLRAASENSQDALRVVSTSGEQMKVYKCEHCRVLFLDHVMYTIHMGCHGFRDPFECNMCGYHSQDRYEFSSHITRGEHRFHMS
Observable: DC50

N#Cc1ccc(-c2ccc3c(c2)CN(C2CCC(=O)NC2=O)C3=O)nn1 (stereo not shown) = > 20 µM
O=C1CCC(N2Cc3cc(-c4cnc5cc(Cl)ccc5n4)ccc3C2=O)C(=O)N1 (stereo not shown) = > 20 µM
O=C1CCC(N2Cc3cc(-c4nc5ccccc5nc4Cl)ccc3C2=O)C(=O)N1 (stereo not shown) = ≥ 20 µM
O=C1CCC(N2Cc3cc(-c4nccc5[nH]ccc45)ccc3C2=O)C(=O)N1 (stereo not shown) = ≥ 20 µM

###

Listed here: items and their measured DC50.
molecular target: Helios (Homo sapiens, UniProt Q96SW2+Q9UKS7); assay: Helios Cellular Degradation Assay (Helios readout); type: cell-based; design: endogenous in cells; host or cells: Jurkat; conditions: Jurkat cells, 72 h incubation, Helios-PE antibody staining, flow cytometry; read-out: Helios Jurkat IC50
Observable: DC50 (nM)

Cc1cc(-c2ccc3c(c2)CN(C2CCC(=O)NC2=O)C3=O)nc(N)c1C (centres unmarked) = 10
CC(C)(C)Cn1ccc(=O)c2c(N)nc(-c3ccc4c(c3)CN(C3CCC(=O)NC3=O)C4=O)cc21 (centres unmarked) = 3
O=C1CCC(N2Cc3cc(-c4ccc5ccc(Cl)cc5n4)ccc3C2=O)C(=O)N1 (centres unmarked) = 57
Nc1ccc(-c2ccc3c(c2)CN(C2CCC(=O)NC2=O)C3=O)nc1N (centres unmarked) = 150
O=C1CCC(N2Cc3cc(-c4ccc5c(n4)NCCO5)ccc3C2=O)C(=O)N1 (centres unmarked) = 80
N#Cc1cc(N)nc(-c2ccc3c(c2)CN(C2CCC(=O)NC2=O)C3=O)c1 (centres unmarked) = 190
CNc1nc(-c2ccc3c(c2)CN(C2CCC(=O)NC2=O)C3=O)cc2ccccc12 (centres unmarked) = 11
Cc1cnc(-c2ccc3c(c2)CN(C2CCC(=O)NC2=O)C3=O)cc1C (centres unmarked) = 40
O=C1CCC(N2Cc3cc(-c4ccc5c(n4)NCCC5)ccc3C2=O)C(=O)N1 (centres unmarked) = 10
O=C1CCC(N2Cc3cc(-c4cc5c(cn4)OCCN5)ccc3C2=O)C(=O)N1 (centres unmarked) = 100
Nc1ccc(C2CC2)c(-c2ccc3c(c2)CN(C2CCC(=O)NC2=O)C3=O)n1 (centres unmarked) = 20
CNc1cc(C)cc(-c2ccc3c(c2)CN(C2CCC(=O)NC2=O)C3=O)n1 (centres unmarked) = 10
O=C1CCC(N2Cc3cc(-c4ncc5cc(F)ccc5n4)ccc3C2=O)C(=O)N1 (centres unmarked) = 53
Cc1ccc2c(-c3ccc4c(c3)CN(C3CCC(=O)NC3=O)C4=O)nccc2c1 (centres unmarked) = 6

###

molecular target: Ikaros (Homo sapiens, UniProt Q13422+Q96SW2); test: Helios Cellular Degradation Assay (Ikaros readout); assay type: cell-based; design: endogenous in cells; host or cells: Jurkat; conditions: Jurkat cells, 72 h incubation, Ikaros-Alexa488 antibody staining, flow cytometry; read-out: Ikaros Jurkat IC50
Listed here: items and their measured DC50.
Observable: DC50

CC(=O)N1CCN(c2nc(-c3ccc4c(c3)CN(C3CCC(=O)NC3=O)C4=O)nc3ncccc23)CC1 (stereo not shown) = 8.1 µM
COc1cccc2c(-c3ccc4c(c3)CN(C3CCC(=O)NC3=O)C4=O)nc(N)cc12 (stereo not shown) = 5 µM
CC(=O)N1CCN(c2cc(N)nc(-c3ccc4c(c3)CN(C3CCC(=O)NC3=O)C4=O)c2)CC1 (stereo not shown) = ≥ 10 µM
CC(=O)Nc1ccc2c(-c3ccc4c(c3)CN(C3CCC(=O)NC3=O)C4=O)nccc2c1 (stereo not shown) = ≥ 20 µM
O=C1CCC(N2Cc3cc(-c4ccc5ccc(Cl)cc5n4)ccc3C2=O)C(=O)N1 (stereo not shown) = > 20 µM
O=C1CCC(N2Cc3cc(-c4nccc5c4ccn5Cc4ccccc4)ccc3C2=O)C(=O)N1 (stereo not shown) = 0.09 µM
Cc1ccc(-c2ccc3c(c2)CN(C2CCC(=O)NC2=O)C3=O)nc1N (stereo not shown) = ≥ 10 µM
O=C1CCC(N2Cc3cc(-c4ncc5cc(F)ccc5n4)ccc3C2=O)C(=O)N1 (stereo not shown) = > 20 µM
Nc1nc(-c2ccc3c(c2)CN(C2CCC(=O)NC2=O)C3=O)cc2[nH]ccc(=O)c12 (stereo not shown) = > 20 µM
Cc1cc(-c2ccc3c(c2)CN(C2CCC(=O)NC2=O)C3=O)nc(N)n1 (stereo not shown) = ≥ 20 µM
O=C1CCC(N2Cc3cc(-c4nc5ccccc5nc4-c4ccccc4)ccc3C2=O)C(=O)N1 (stereo not shown) = ≥ 20 µM
Cc1c(-c2ccc3c(c2)CN(C2CCC(=O)NC2=O)C3=O)nc(N)c2ccccc12 (stereo not shown) = ≥ 20 µM
CN(C)Nc1cccc(-c2ccc3c(c2)CN(C2CCC(=O)NC2=O)C3=O)n1 (stereo not shown) = ≥ 10 µM
O=C1CCC(N2Cc3cc(-c4cc5cc[nH]c5nn4)ccc3C2=O)C(=O)N1 (stereo not shown) = > 20 µM
O=C1CCC(N2Cc3cc(-c4ccc5cc(F)ccc5n4)ccc3C2=O)C(=O)N1 (stereo not shown) = > 20 µM
Cc1cc(-c2ccc3c(c2)CN(C2CCC(=O)NC2=O)C3=O)ncc1C#N (stereo not shown) = ≥ 10 µM
NC(=O)c1nc(-c2ccc3c(c2)CN([C@H]2CCC(=O)NC2=O)C3=O)cc2ccccc12 = ≥ 20 µM
CC(C)c1cc(-c2ccc3c(c2)CN(C2CCC(=O)NC2=O)C3=O)nc(N)c1C#N (stereo not shown) = ≥ 10 µM
Cc1ccc2nc(-c3ccc4c(c3)CN(C3CCC(=O)NC3=O)C4=O)ccc2c1 (stereo not shown) = > 20 µM
Cc1cc(-c2ccc3c(c2)CN(C2CCC(=O)NC2=O)C3=O)nc(C)c1N (stereo not shown) = ≥ 10 µM
Nc1c(-c2ccc3c(c2)CN(C2CCC(=O)NC2=O)C3=O)ncc2ccccc12 (stereo not shown) = 13.7 µM
O=C1CCC(N2Cc3cc(-c4ccc5ncccc5n4)ccc3C2=O)C(=O)N1 (stereo not shown) = > 20 µM
O=C1CCC(N2Cc3cc(-c4nccc(-c5ccccc5)n4)ccc3C2=O)C(=O)N1 (stereo not shown) = > 20 µM
CC(=O)Nc1cc2ccccc2c(-c2ccc3c(c2)CN([C@H]2CCC(=O)NC2=O)C3=O)n1 = ≥ 20 µM
O=C1CC[C@H](N2Cc3cc(-c4ccc5cccnc5n4)ccc3C2=O)C(=O)N1 = ≥ 20 µM
N#CCc1ccnc(-c2ccc3c(c2)CN(C2CCC(=O)NC2=O)C3=O)c1 (stereo not shown) = ≥ 10 µM
N#Cc1ccnc(-c2ccc3c(c2)CN(C2CCC(=O)NC2=O)C3=O)c1 (stereo not shown) = ≥ 10 µM
O=C1CCC(N2Cc3cc(-c4ccc5c(n4)NCCO5)ccc3C2=O)C(=O)N1 (stereo not shown) = ≥ 20 µM
COc1cccnc1-c1ccc2c(c1)CN(C1CCC(=O)NC1=O)C2=O (stereo not shown) = ≥ 20 µM
O=C1CCC(N2Cc3cc(-c4ncc5ccccc5n4)ccc3C2=O)C(=O)N1 (stereo not shown) = > 20 µM
Nc1nc(-c2ccc3c(c2)CN(C2CCC(=O)NC2=O)C3=O)c2nc[nH]c2n1 (stereo not shown) = > 20 µM
Nc1ccc(-c2ccc3c(c2)CN(C2CCC(=O)NC2=O)C3=O)nc1N (stereo not shown) = ≥ 10 µM
O=C1CCC(N2Cc3cc(-c4ncc(Br)c5cc[nH]c45)ccc3C2=O)C(=O)N1 (stereo not shown) = 0.049 µM
COc1cccc(-c2ccc3c(c2)CN(C2CCC(=O)NC2=O)C3=O)n1 (stereo not shown) = ≥ 20 µM

Cited source for all entries: patent US12570671B2
